Each recorded value in this set is attributed to patent US9725445B2.

Reported pIC50 by item:
- system: JAK1 (Homo sapiens (Human), UniProt P23458)
- Sequence (P23458 875-1153): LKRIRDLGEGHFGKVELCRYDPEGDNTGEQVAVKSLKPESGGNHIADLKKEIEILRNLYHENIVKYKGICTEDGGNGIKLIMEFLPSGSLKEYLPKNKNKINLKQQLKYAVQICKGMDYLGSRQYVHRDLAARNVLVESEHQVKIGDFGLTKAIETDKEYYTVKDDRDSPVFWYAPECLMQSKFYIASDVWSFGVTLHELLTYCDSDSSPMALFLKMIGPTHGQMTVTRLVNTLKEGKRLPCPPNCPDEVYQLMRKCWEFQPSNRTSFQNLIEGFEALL
- test-description: Jak biochemical HTRF assay, JAK1
- assay-setup: HTRF biochemical assay, recombinant GST-tagged catalytic domain; read-out: JAK1 IC50
pIC50: −log10 of the molar value. Counter-ions that a name gives are not always drawn.
readout-kind: pIC50

* Cc1cc(Nc2nn([C@@H]3CCCCC[C@H]3C#N)c3cc[nH]c(=O)c23)ccc1C(O)C(F)(F)F (single isomer, unassigned) [Example 15-67] | 9.42
* N#C[C@H]1CCCC[C@@H]1n1nc(Nc2ccc3c(c2)CN(CC(F)(F)F)S3(=O)=O)c2c(=O)[nH]ccc21 | 10.30
* CC(C)N1Cc2cc(Nc3nn([C@H]4CCCC[C@@H]4C#N)c4cc[nH]c(=O)c34)ccc2C1C (single isomer, unassigned) [Example 19-2] | 9.33
* N#C[C@H]1CCCC[C@@H]1n1nc(Nc2ccc([C@@H]3C[C@H]4CC[C@@H](C3)N4)cc2)c2c(=O)[nH]ccc21 [Example 20-1, hydrochloride] | 9.42

====

- system: JAK1 (Homo sapiens (Human), UniProt P23458)
- test-description: Jak biochemical HTRF assay, JAK1
- assay-setup: HTRF biochemical assay, recombinant GST-tagged catalytic domain; read-out: JAK1 IC50
Reported log10 of IC50 by item:
readout-kind: log10 of IC50 (log10 of the value in nM)

* C[C@H](N[C@@H]1CC[C@H](n2nc(Nc3ccc(OC(F)(F)F)cc3)c3c(=O)[nH]ccc32)[C@@H](C#N)C1)C1CC1 [Example 5-27] | 0.57
* C[C@H](N[C@H]1CC[C@H](n2nc(Nc3ccc(C(F)(F)F)cc3)c3c(=O)[nH]ccc32)[C@@H](C#N)C1)C1CC1 [Example 5-12] | 0.08
* N#C[C@H]1CCCC[C@@H]1n1nc(Nc2ccc([C@]3(O)CC[C@@H](C(=O)O)CC3)cc2)c2c(=O)[nH]ccc21 (racemic) [Example 17-1] | -1.02
* C[C@H](N[C@H]1CC[C@H](n2nc(Nc3ccc(OC(F)(F)F)cc3)c3c(=O)[nH]ccc32)[C@@H](C#N)C1)C1CC1 [Example 5-28] | -0.30
* N#C[C@H]1CCCC[C@@H]1n1nc(Nc2ccc(S(=O)(=O)NCC3CC3)cc2)c2c(=O)[nH]ccc21 [Example 3-20] | -0.89
* N#C[C@H]1CCCC[C@@H]1n1nc(Nc2ccc3c(c2)CN(CC2CC2)C3)c2c(=O)[nH]ccc21 [Example 3-77] | -0.28
* Cn1ccc(NC(=O)Cc2cccc(Nc3nn([C@H]4CCCC[C@@H]4C#N)c4cc[nH]c(=O)c34)c2)n1 [Example 3-11] | -0.39
* C[C@H](NC1CCC(n2nc(Nc3ccc(Cl)cc3)c3c(=O)[nH]ccc32)C(C#N)C1)C1CC1 (stereo in doubt) [Example 4-3] | -0.52

====

- system: JAK2 (Homo sapiens (Human), UniProt O60674)
- Sequence (O60674 849-1124): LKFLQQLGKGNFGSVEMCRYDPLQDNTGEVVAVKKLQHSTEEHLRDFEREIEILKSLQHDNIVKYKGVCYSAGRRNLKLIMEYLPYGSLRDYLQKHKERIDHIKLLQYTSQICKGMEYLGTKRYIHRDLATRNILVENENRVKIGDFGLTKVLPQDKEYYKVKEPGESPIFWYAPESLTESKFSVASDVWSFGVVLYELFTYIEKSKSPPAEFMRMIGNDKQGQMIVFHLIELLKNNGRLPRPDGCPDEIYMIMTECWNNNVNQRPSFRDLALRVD
- test-description: Jak biochemical HTRF assay, JAK2
- assay-setup: HTRF biochemical assay, recombinant GST-tagged catalytic domain; read-out: JAK2 IC50
Reported IC50 by item:
readout-kind: IC50 (nM)

• N#C[C@H]1CCCC[C@@H]1n1nc(Nc2ccnc(F)c2)c2c(=O)[nH]ccc21 = 5.4
• CC(C)(C)OC(=O)NCc1cc(F)cc(Nc2nn([C@H]3CCCC[C@@H]3C#N)c3cc[nH]c(=O)c23)c1 = 3.8
• N#C[C@H]1CCCC[C@@H]1n1nc(Nc2ccc3c(c2)CN(CC2CCCC2)C3)c2c(=O)[nH]ccc21 = 0.92
• CC(C)N1Cc2cc(Nc3nn([C@H]4CCCC[C@@H]4C#N)c4cc[nH]c(=O)c34)ccc2C1C (single isomer, unassigned) [Example 19-1] = 0.89
• CC(C)CN1Cc2ccc(Nc3nn([C@H]4CCCC[C@@H]4C#N)c4cc[nH]c(=O)c34)cc2C1 = 0.68
• N#C[C@H]1CCC[C@@H]1n1nc(Nc2ccc(C(N)C(F)(F)F)cc2)c2c(=O)[nH]ccc21 (single isomer, unassigned) [Example 3-137] = 0.59

====

- system: JAK1 (Homo sapiens (Human))
- test-description: Jak biochemical HTRF assay, JAK1
- assay-setup: HTRF biochemical assay, recombinant GST-tagged catalytic domain; read-out: JAK1 IC50
pIC50: −log10 of the molar value.
readout-kind: pIC50

- CC(C)(C)OC(=O)[C@H]1CC[C@@H](N2Cc3cc(Nc4nn([C@H]5CCCC[C@@H]5C#N)c5cc[nH]c(=O)c45)ccc3S2(=O)=O)CC1: 9.66
- N#C[C@H]1CCCC[C@@H]1n1nc(Nc2ccc(C3(N)CCC3)cc2)c2c(=O)[nH]ccc21: 9.44
- CC(C)(C)[S@+]([O-])N[C@H](c1ccc(Nc2nn([C@H]3CCCC[C@@H]3C#N)c3cc[nH]c(=O)c23)cc1)C(F)(F)F: 9.51
- CC(C)S(=O)(=O)c1ccc(Nc2nn([C@H]3CCCC[C@@H]3C#N)c3cc[nH]c(=O)c23)cc1: 9.82

====

- system: JAK1 (Homo sapiens (Human))
- test-description: Jak biochemical HTRF assay, JAK1
- assay-setup: HTRF biochemical assay, recombinant GST-tagged catalytic domain; read-out: JAK1 IC50
readout-kind: IC50 (pM)

* CC1NCc2cc(Nc3nn([C@H]4CCCC[C@@H]4C#N)c4cc[nH]c(=O)c34)ccc21 (single isomer, unassigned) [Example 12-4] | 580
* N#C[C@H]1C[C@H](N2CC(O)C2)CC[C@@H]1n1nc(Nc2ccc(Cl)cc2)c2c(=O)[nH]ccc21 | 110
* CC(C)N1Cc2ccc(Nc3nn([C@H]4CCCC[C@@H]4C#N)c4cc[nH]c(=O)c34)cc2C1 | 140
* N#C[C@H]1CCCC[C@@H]1n1nc(Nc2cccc([C@@H](N)C(F)(F)F)c2)c2c(=O)[nH]ccc21 | 260
* CC(C)(C)OC(=O)CCN1Cc2ccc(Nc3nn([C@H]4CCCC[C@@H]4C#N)c4cc[nH]c(=O)c34)cc2C1 | 490
* Cc1cc(Nc2nn([C@H]3CCCC[C@@H]3C#N)c3cc[nH]c(=O)c23)ccc1-c1cnn(CCC#N)c1 | 170
* N#C[C@@H]1CCCCC[C@H]1n1nc(Nc2ccc3c(c2)CN(C(=O)N2CCCCC2)C3)c2c(=O)[nH]ccc21 (single isomer, unassigned) | 420
* N#C[C@H]1CCCC[C@@H]1n1nc(Nc2ccc3c(c2)CNS3(=O)=O)c2c(=O)[nH]ccc21 | 51
* C[C@H](N[C@@H]1CC[C@@H](n2nc(Nc3ccc(C(F)(F)F)cc3)c3c(=O)[nH]ccc32)[C@H](C#N)C1)C1CC1 | 9400

====

Reported pIC50 by item:
- system: UniProt:P23458
- test-description: Jak biochemical HTRF assay, JAK1
- assay-setup: HTRF biochemical assay, recombinant GST-tagged catalytic domain; read-out: JAK1 IC50
pIC50: −log10 of the molar value.
readout-kind: pIC50

- N#C[C@H]1CCCC[C@@H]1n1nc(Nc2ccnc(F)c2)c2c(=O)[nH]ccc21: 9.40
- CC(C)CN1Cc2cc(Nc3nn([C@H]4CCCC[C@@H]4C#N)c4cc[nH]c(=O)c34)ccc2S1(=O)=O: 10.08
- CC1(N2Cc3cc(Nc4nn([C@H]5CCCC[C@@H]5C#N)c5cc[nH]c(=O)c45)ccc3S2(=O)=O)CCC(F)(F)CC1: 9.55
- CC(C)OC(=O)c1ccc2cc(Nc3nn([C@H]4CCCC[C@@H]4C#N)c4cc[nH]c(=O)c34)ccc2n1: 9.59
- N#C[C@H]1CCCC[C@@H]1n1nc(Nc2ccc(-c3ncco3)cc2)c2c(=O)[nH]ccc21: 9.89
- CS(=O)(=O)c1ccc(Nc2nn([C@H]3CCCC[C@@H]3C#N)c3cc[nH]c(=O)c23)cc1: 9.92
- COC(C)(c1ccc(Nc2nn([C@H]3CCCC[C@@H]3C#N)c3cc[nH]c(=O)c23)cc1)C(F)(F)F (single isomer, unassigned): 9.49
- N#C[C@H]1CCCC[C@@H]1n1nc(Nc2ccc3c(c2)CN(CC2CC2)S3(=O)=O)c2c(=O)[nH]ccc21: 10.18

====

- system: JAK2 (Homo sapiens (Human))
- test-description: Jak biochemical HTRF assay, JAK2
- assay-setup: HTRF biochemical assay, recombinant GST-tagged catalytic domain; read-out: JAK2 IC50
readout-kind: IC50

- CN1Cc2cc(Nc3nn([C@H]4CCC[C@@H]4C#N)c4cc[nH]c(=O)c34)ccc2S1(=O)=O: 0.66 nM
- N#C[C@H]1CCCC[C@@H]1n1nc(Nc2ccc3c(c2)CCS3(=O)=O)c2c(=O)[nH]ccc21: 0.71 nM
- N#Cc1ccc(Nc2nn([C@H]3CCC[C@@H]3C#N)c3cc[nH]c(=O)c23)cc1: 1.2 nM
- N#C[C@H]1CCCC[C@@H]1n1nc(Nc2ccc(C3CCCN3)cc2)c2c(=O)[nH]ccc21 (single isomer, unassigned) [Example 3-71]: 0.54 nM
